Provide the recorded Ki for the entries that follow.
Biological target: T1, RTEL1∆762-1097 (human, UniProt Q9NZ71-6 762-1097)
T1 sequence: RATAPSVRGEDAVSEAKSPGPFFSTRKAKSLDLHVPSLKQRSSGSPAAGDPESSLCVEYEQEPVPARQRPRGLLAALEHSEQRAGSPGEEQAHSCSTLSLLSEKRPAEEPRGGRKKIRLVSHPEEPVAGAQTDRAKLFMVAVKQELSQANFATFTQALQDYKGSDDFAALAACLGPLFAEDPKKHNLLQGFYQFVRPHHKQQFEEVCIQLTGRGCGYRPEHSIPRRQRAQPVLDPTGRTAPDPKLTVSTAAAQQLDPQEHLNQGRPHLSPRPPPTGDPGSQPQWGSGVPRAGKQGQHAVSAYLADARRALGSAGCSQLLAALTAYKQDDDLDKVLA
Test: competition (fluorescence anisotropy); vs FAM-TERRA-MUT, 1 uM; 20 mM Tris pH 7.5, 50 mM KCl, 0.5 mM TCEP, 0.5 mM MgCl2, 10% glycerol, 0.1% IGEPAL, room temperature 30 min; oligos refolded in 10 mM Tris pH 7.5, 100 mM KCl; EMSA legends give 150 or 300 mM KCl
Conditions: protein: recombinant; tags: 6xHis; no G4
Answer format: numeric, µM implied, no suffix.

Find the recorded Ki belonging to UUACCGUUACCGUUACCGUUACCG (ssRNA) [TERRA-MUT competitor] and report it.
16.1

Further, for GGTTACCGTTACCGTTACCGTTACCGTTAG (ssDNA) [hTelo-MUT] ?
12.6
